Catalogue of growth readings, one per entry.
- Tested on: MDA-MB-231 breast
- RUN_DESCRIPTION: NCI-60 one-dose screen, 48 h (100 = growth as untreated, 0 = no growth, -100 = all killed)
- CONDITIONS_USED: 10 µM unless noted
About 83,000 compounds went through this panel and 20% of them were active in at least one assay; those are over-represented in the sample as a whole.
Unit % implied. Number only.

COMPOUND	UNIT_ABBREV	growth
CCN(CC)CCn1c(=O)c2cc(OC)c(OC)cc2c2ccc3cc4c(cc3c21)OCO4	%	54.8
COc1cc2nc(-c3ccc(C(F)(F)F)cc3)cc(OCCCN3CCOCC3)c2cc1OC	%	22.1

[Q] Which value of growth has been reported for CCNc1nc2ccc(Nc3ccnc4cc(Cl)ccc34)cc2[nH]1 in the records?
[A] 84.7

[Q] What growth value was documented for this compound, O=C1c2ccccc2CCC12OC2c1cn(-c2ccccc2)nc1-c1ccc(Cl)cc1 (stereo not given) ?
[A] 91.9

[Q] For the compound shown here, CCOC(=O)c1nc2c3ccccc3ccn2c1C(=O)OCC , give the reported growth.
[A] 98.2

[Q] Reported growth, compound COCc1cnccc1NC1CCCCCC1 : ____
[A] 101

[Q] Field request: growth | item: O=C(/C(=C\c1ccc([N+](=O)[O-])cc1)S(=O)Cc1ccc(F)cc1)c1ccc(F)cc1 (stereo not given)
[A] 12.8

[Q] Any idea what its growth is? The compound is COc1cc2c3c(c4c5ccccc5[nH]c4c2c(OC)c1OC)C(=O)N(CCN1CCOCC1)C3=O
[A] 72.4

[Q] Query: growth; subject: Cc1cccc(NC(=O)Nc2ccc(-c3ccc4c(c3)NC(=O)/C4=C\c3ccc[nH]3)cc2)c1
[A] 93

[Q] # lookup: growth of C[C@@H](Nc1ncnc2ccc(-c3cnc(N)nc3)cc12)c1ccc(F)cc1
[A] 59.6

====

- Test system: NCI-H23 lung
- RUN_DESCRIPTION: NCI-60 one-dose screen, 48 h (100 = growth as untreated, 0 = no growth, -100 = all killed)
- CONDITIONS_USED: 10 µM unless noted
The panel holds about 83,000 compounds, 20% with a hit somewhere; the sample as a whole holds those more often.
METRIC: growth (%)
Output spec: scalar in %, unitless text.

Solved cases (2 shown):
COMPOUND	UNIT_ABBREV	growth
C=C(C)[C@@H]1CC[C@]2(CN)CC[C@]3(C)[C@H](CC[C@@H]4[C@@]5(C)CCCNC(C)(C)[C@@H]5CC[C@]43C)[C@@H]12	%	10.5
CCSCC1CC(O)(c2ccccc2)CC(c2ccc(F)cc2)O1 (stereo not given)	%	26.6

[Q] Returns the measured growth for the input compound. Input: ClC1=C(Br)C(Br)(Br)C(=C(Br)Br)C1(Br)Br
[A] 104

[Q] Field request: growth | item: CN1C(=O)NC(c2ccc3c(c2)OCO3)C=C1c1ccccc1 (stereo not given)
[A] 96.3

[Q] Given the entry O=S(=O)(NCCNc1nccc(-c2c(-c3cccc(O)c3)nc3occn23)n1)c1ccccc1 , report its measured growth.
[A] 93.5

====

# growth values compiled below
- System: DU-145 prostate
- RUN_DESCRIPTION: NCI-60 one-dose screen, 48 h (100 = growth as untreated, 0 = no growth, -100 = all killed)
- CONDITIONS_USED: 10 µM unless noted
This is part of a sample that, as a whole, favours compounds with a hit. Of some 83,000 tested, about 20% had one in any assay.
Write the answer as a number in %, unit excluded.

MOLECULE	growth [%]
C=C1C(=O)O[C@H]2[C@H]1CC/C(CNS(=O)(=O)c1cccc3ccccc13)=C\CC[C@@]1(C)O[C@@H]21	25.5
COc1cccc(/C=N/NC(=O)c2cnn3c2NC(c2ccccc2)C3)c1Oc1ccccc1 (centres undefined)	89.8
O=C1c2cccc3c(-c4ccc5c(c4)ncn5C4CCCCC4)ccc(c23)C(=O)N1c1nc2ccccc2s1	105
COc1cc2cc(CN3CCN(c4nccc(-c5ccc6ccccc6c5)n4)CC3)c(=O)[nH]c2cc1OC	74
O=C(O)c1ccc(NCc2cn(-c3ccc(C(F)(F)F)cc3)nc2-c2ccc(C(=O)O)cc2)cc1	115

[Q] Given C=C1C(=O)O[C@H]2[C@H]1CC/C(COC(=O)NCC(C)c1ccc(CC(C)C)cc1)=C\CC[C@@]1(C)O[C@@H]21 (some centres undefined) , state its recorded growth.
[A] 16.4

[Q] Looking for the measured growth of O=C(c1nnc(Nc2ccccc2Br)o1)c1c[nH]c2ccccc12 , can you help?
[A] 107

[Q] growth for C[C@@H](Nc1ncnc2ccc(-c3cnc(N)nc3)cc12)c1ccc(F)cc1 ?
[A] 47.9

[Q] growth lookup needed for N#CC1C(C#N)C(C(=O)c2ccc(Br)cc2)N2c3ccccc3C=CC12 (centres undefined) , thanks.
[A] 91.9

====

- Tested on: MDA-MB-435 melanoma
- RUN_DESCRIPTION: NCI-60 one-dose screen, 48 h (100 = growth as untreated, 0 = no growth, -100 = all killed)
- CONDITIONS_USED: 10 µM unless noted
Compounds without any hit were thinned out: in the full panel of roughly 83,000, 20% have a hit.
METRIC: growth (%)
Write it as a number; the unit % goes unstated.

STRUCTURE_AS_SMILES	EXPERIMENTAL_VALUE
Cc1ccc(CNc2c3ccccc3nc3cc(NC(=O)CCN4CCCC4)ccc23)cc1	8.86
CCCN1[C@@H]2CC[C@H]1/C(=C\c1ccc(OC)c(OC)c1)C(=O)/C2=C/c1ccc(OC)c(OC)c1	39.6
C=C1C(=O)O[C@H]2[C@H]1CC/C(CNC(=O)CCc1ccc(OC)cc1)=C\CC[C@@]1(C)O[C@@H]21	14.3
Cc1ccc(NS(=O)(=O)c2ccc(-c3cnc(C4CC4)o3)cc2)cc1C(F)(F)F	-4.02

[Q] Dear colleague, I am looking for the recorded growth of the following molecule: COc1cc(/C=C/C(=O)c2nc3cc(F)ccc3nc2C)cc(OC)c1OC
[A] 75

====

- System: SF-539 CNS
- RUN_DESCRIPTION: NCI-60 one-dose screen, 48 h
- CONDITIONS_USED: 10 µM unless noted
Compounds without any hit were thinned out: in the full panel of roughly 83,000, 20% have a hit. Active and inactive are the calls of the source. Rule for the calls: active = growth percent below 10; inactive = the rest.
Could you please pick one outcome from this set? yes (active), no (inactive)

Examples from the recorded data:
STRUCTURE_AS_SMILES	MEASURED_ON	CLASS
C=C(C)[C@@H]1CC[C@]2(C(=O)N[C@H](CO)Cc3ccccc3)CC[C@]3(C)[C@H](CC[C@@H]4[C@@]5(C)CCCNC(C)(C)[C@@H]5CC[C@]43C)[C@@H]12	SF-539 CNS	yes
COc1ccccc1/C(C)=N/NC(=O)CSc1nc2ccccc2c(=O)n1Cc1ccc(S(N)(=O)=O)cc1	SF-539 CNS	no
NC(=NCCCOc1ccc(F)cc1)Nc1ccc(Cl)cc1	SF-539 CNS	no

Continue with the next molecule.
[Q] Write down the call the test reported for this molecule. Item: COc1ccc(C(=O)c2cc(OC)c(OC)c(OC)c2)cc1O
[A] yes

====

- System: U251 CNS
- RUN_DESCRIPTION: NCI-60 one-dose screen, 48 h (100 = growth as untreated, 0 = no growth, -100 = all killed)
- CONDITIONS_USED: 10 µM unless noted
- Method: Growth inhibition of the U251 human tumor cell line is measured as a screen for anti-cancer activity. Cells are grown in 96 well plates and exposed to the test compound for 48 hours. Compounds are tested at a single concentration, which is 10^-5 M for most compounds. The reported endpoint is percent growth (GI% or GIPRCNT), where numbers from 0 - 100% represent growth inhibition, and numbers from -100% - 0 represent cell death. For example, a value of 40 represents 60% growth inhibition. […]
Compounds without any hit were thinned out: in the full panel of roughly 83,000, 20% have a hit.
METRIC: growth (%)
Provide the reading as a plain figure in %.

STRUCTURE_AS_SMILES	MEASURED_ON	UNIT_ABBREV	growth
N#C/C(=C\c1cccc(C#N)c1)c1ccccc1	U251 CNS	%	89.2
COc1cc2c(c(O)c1Br)C(=O)c1c(O)cc(C[C@H](C)O)cc1[C@H]2[C@H]1c2cc(C[C@H](C)O)cc(O)c2C(=O)c2c1cc(OC)c(Br)c2O	U251 CNS	%	10.3
CCCN1[C@@H]2CC[C@H]1/C(=C\c1ccc(OC)c(OC)c1)C(=O)/C2=C/c1ccc(OC)c(OC)c1	U251 CNS	%	40.7

Shifting focus to the molecule that follows.
[Q] Item under review: COc1cc2c(=O)n(CCCN(C)C)c3c4cc5c(cc4ccc3c2cc1OC)OCO5 . Reported growth?
[A] 55.8

====

- System: BT-549 breast
- RUN_DESCRIPTION: NCI-60 one-dose screen, 48 h (100 = growth as untreated, 0 = no growth, -100 = all killed)
- CONDITIONS_USED: 10 µM unless noted
Compounds without any hit were thinned out: in the full panel of roughly 83,000, 20% have a hit.
METRIC: growth (%)
State the answer as a number, implicitly in %.

COMPOUND	growth / %
Nc1ccccc1NC(=O)c1ccc(-n2nc(-c3ccccc3)c3ccccc32)cc1	-92.3

[Q] # get_value(readout='growth', item= C#CCNC(=O)[C@]1(C)CC[C@]2(C)CC[C@@H]3C(=CC[C@H]4[C@@]3(C)CC[C@H]3C(C)(C)C(=O)CC[C@]43C)[C@@H]2C1 )
[A] 101

[Q] Please give the measured growth for this compound: O=C(CCN1CCCC1)Nc1ccc2c(NCCc3ccccc3)c3ccccc3nc2c1
[A] -15.3

[Q] Reported growth, compound CCCCCN1C=C/C(=C\C(=O)N(C)c2ccc(Oc3ccccc3)cc2)c2ccccc21 : ____
[A] 91.4
